# measurement description: Toxicity liver stage against HepG2, at 10uM
# Format: cell-based
# Parameters: test concentration 10 uM, cell line HepG2-A16-CD81EGFP
# measurement context: human, HepG2-A16-CD81EGFP cells; read-out: INHIBITION
For each entry below, report its cytotoxicity at 10 µM value.
Answers are plain numbers, in %.

COCCN(C)Cc1cc(Cl)ccc1OCC(O)CN1CCCCCC1 (stereo unspecified) :: 1.76
CN(C)c1nccc(C2CCCN2S(=O)(=O)c2cn(C)cn2)n1 (stereo unspecified) :: -20.2

For the 7 molecules below, give their cytotoxicity at 10 µM values.
1. O=C(N[C@@H]1C[C@@H]2CC[C@H]1C2)C1(Oc2ccc(Cl)cc2)CCNCC1
2. CN(C)CC(=O)N1CCCC2(CCN(c3ccccc3)C2=O)C1 (stereo unspecified)
3. COc1cccc(COCC(=O)N2CCCC(n3cncn3)C2)c1 (stereo unspecified)
4. Cc1ccc(N2CCCC3(CCCC(=O)N3)C2)nn1 (stereo unspecified)
5. CC(C)Cc1nc(CN2CCC(NC(=O)c3cccs3)CC2)no1
6. CC(C)C(=O)N1CCN(Cc2cc(-c3ccncc3)nn2C)CC1
7. CN(Cc1cccnc1)C[C@H]1OC[C@@H]2CCN(C(=O)C3CC3)C[C@@H]21

1: -5.26; 2: -1.24; 3: -21.1; 4: -1.52; 5: -2.56; 6: 0.59; 7: -117

For the 4 molecules below, give their cytotoxicity at 10 µM values.
1. COC(=O)CC1CCCCN1CC(=O)Nc1ccc(F)cc1Cl (stereo unspecified)
2. CC(C(=O)NCc1ccc(N2CCCCC2)nc1)S(C)(=O)=O (stereo unspecified)
3. CNS(=O)(=O)CCCN(C)Cc1cc(C)ccc1OC
4. CN1CCN(Cc2cccnc2)C(=O)C12CCN(CC1CCOC1)CC2 (stereo unspecified)

1. 14
2. -8.81
3. -61
4. -106

For the 8 molecules below, give their cytotoxicity at 10 µM values.
1. c1ccc(CN2CC[C@H]3[C@H]2CCN3c2ncccn2)nc1
2. O=C(NCc1ccc(F)cc1)NCC1(N2CCOCC2)CCSC1 (stereo unspecified)
3. c1csc(-c2cc(CN3CCN(c4cnccn4)CC3)no2)c1
4. Cc1ccc(CN2C(=O)CCC23CCC(NC2CCOC2)CC3)cc1 (stereo unspecified)
5. COc1ccccc1C1CCN(C(=O)c2ncccc2OC(C)C)C1 (stereo unspecified)
6. c1ccc2c(c1)CN(c1ncnc3sc4c(c13)CCNC4)CCO2
7. O=C1CC2(CCN(Cc3ccsc3)C2)CN1c1ccc2c(c1)OCO2 (stereo unspecified)
8. O=C(N1CCSCC1)C1(O)Cc2ccccc2C1

1: 1.24; 2: 1.84; 3: -0.523; 4: -3.04; 5: -0.67; 6: 5.08; 7: -75; 8: 6.35

----------
# measurement description: Toxicity liver stage against HepG2, at 10uM
# Type: cell-based
# Set-up: test concentration 10 uM, cell line HepG2-A16-CD81EGFP
# measurement context: human, HepG2-A16-CD81EGFP cells; read-out: INHIBITION
attribute measured: cytotoxicity at 10 µM (%)
Numbers only, in %.

For the 2 molecules below, give their cytotoxicity at 10 µM values.
1. COc1ccc(CN2CCCC(n3cccn3)C2)c(Cl)c1OC (configuration not stated)
2. FC(F)(F)c1ccc(CN2CCN(Cc3cscn3)CC2)cc1

[4.48, -4.94]

For the 7 molecules below, give their cytotoxicity at 10 µM values.
1. Cc1nccn1-c1ccc(NC(=O)C2CCCN2Cc2ccoc2)cc1 (configuration not stated)
2. O=C(NCC(O)c1cccc(F)c1)c1sccc1OC(F)F (configuration not stated)
3. Cn1ncc2c1C(COCC1CC1)CN(Cc1ccoc1)C2 (configuration not stated)
4. O=C(NCC1CC1)[C@H]1CC[C@@H]2[C@@H](CCN2Cc2nccs2)O1
5. Cc1cc(-c2nn(C)c(Cl)c2CN2Cc3ccccc3C(O)C2)no1 (configuration not stated)
6. COCCNC(=O)C(C)n1nc(-c2ccco2)cc(N)c1=O (configuration not stated)
7. Cc1cnc(N2CCc3c(CN(C)Cc4ccco4)cncc3C2)nc1

0.184
0.547
-1.21
6.93
4.1
2.62
4.15

----------
For each entry below, report its cytotoxicity at 10 µM value.
# measurement description: Toxicity liver stage against HepG2, at 10uM
# Assay type: cell-based
# Set-up: test concentration 10 uM, cell line HepG2-A16-CD81EGFP
# measurement context: human, HepG2-A16-CD81EGFP cells; read-out: INHIBITION
Answers are plain numbers, in %.

Examples with answers:
Cc1noc(C)c1C(=O)N1CCC2(CC1)CC(Oc1ccccc1)CO2 (centres undefined) :: 11.8
c1ccc(CN2CCOC3(COCCN(c4ncccn4)C3)C2)nc1 (centres undefined) :: 8.28
CC(=O)N1CCC(Oc2cccc(C#N)c2)CC1 :: 6.35
CN1CCN(C(=O)Cn2ccc3c(Cl)cccc32)CC1 :: 2.08
CCN1CCCC(C)(C(=O)NCCc2nnc(C)[nH]2)C1 (centres undefined) :: 1.1

For the 6 compounds below, give their cytotoxicity at 10 µM values.
1. CN(C)c1cccc(C(=O)Nc2cnn(Cc3ccncc3)c2)c1
2. Cc1cccc(-c2nnc(C(C)N3CCn4c(C)nnc4C3)o2)c1 (centres undefined)
3. CCS(=O)(=O)N1Cc2[nH]nc(COCc3cccnc3)c2C1
4. O=C(NCc1cccnc1)C1=NOC2(CCN(C(=O)N3CCCC3)C2)C1 (centres undefined)
5. CN1C(=O)CCc2cc(NC(=O)C3CC3)ccc21
6. Cc1cccc(CNC[C@H]2Cn3cc(-c4ccccc4)nc3CO2)n1

1: -9.19; 2: 0.131; 3: 11.9; 4: -4.8; 5: 0.696; 6: -2.59

----------
# measurement description: Toxicity liver stage against HepG2, at 10uM
# Assay type: cell-based
# Parameters: test concentration 10 uM, cell line HepG2-A16-CD81EGFP
# measurement context: human, HepG2-A16-CD81EGFP cells; read-out: INHIBITION
attribute measured: cytotoxicity at 10 µM (%)
One number for each entry, in %.

O=C(c1cc(F)cc(Cl)c1)N1C[C@H]2CC[C@@H](C1)N(Cc1ccccc1)C2 :: -128
CCn1ccnc1CN(C)Cc1nc(Cc2ccccc2Cl)no1 :: -1.99
CC(C)CC(=O)N1CCC2(CC1)NC(=O)[C@H]1CN(C(=O)N(C)C)C[C@H]12 :: -1.74
Cc1cn2c(n1)CCC(NC(=O)CCn1ccnn1)C2 (configuration not stated) :: -2.53
CN(C)c1ccc(CCNC(=O)NCc2ccc(N(C)C)nc2)cc1 :: -11.2
O=C1NCCN1C1CCN(CCOc2cccc3ccccc23)CC1 :: -5.72

For the 6 molecules below, give their cytotoxicity at 10 µM values.
1. CCCn1nnnc1COc1ccc(C(=O)OC)cc1OC
2. O=c1occ(CN2CCOCC2)c(O)c1CN1CCOCC1
3. CN(CCc1nc2cc(Cl)ccc2[nH]1)C(=O)c1ncn[nH]1
4. CCc1cc(O)nc(C2CCCN(Cc3ccncc3)C2)n1 (configuration not stated)
5. CCc1nnsc1C(=O)N1CCCN(Cc2ccc(F)cc2)CC1
6. CCNC(=O)C1CCN(c2cc(-c3ccccc3)nc3ccnn23)C1 (configuration not stated)

1: -1.9; 2: -12.1; 3: -53.7; 4: -7.05; 5: -3.69; 6: -16.9

----------
For each entry below, report its cytotoxicity at 10 µM value.
# measurement description: Toxicity liver stage against HepG2, at 10uM
# Assay type: cell-based
# Parameters: test concentration 10 uM, cell line HepG2-A16-CD81EGFP
# measurement context: human, HepG2-A16-CD81EGFP cells; read-out: INHIBITION
Give bare numbers, in %.

Examples with answers:
Cc1ccc(C)c(OCc2cc(C(=O)N(C)Cc3cnn(C)c3)no2)c1 :: -6.12
Cc1noc([C@@H]2CCO[C@@H]3CCN(C(=O)Cc4ccsc4)C[C@@H]32)n1 :: 10.4
COc1ccc(NC(=O)C2CC(=O)n3cnnc3S2)cc1 (stereo unspecified) :: 1.64
CC(C)(C)OC(=O)N1CCC(NC2CC2)CC1 :: -5.64
CCC[C@@H]1CN(Cc2ccccc2SC)C[C@H]1NC(C)=O :: -5.73

Proceed to the following item.
I have this compound here, Fc1ccc(CN2CCO[C@H]3[C@H](OCCN4CCCC4)CC[C@@H]32)cc1 , and I need its recorded cytotoxicity at 10 µM.
2.17

----------
For each entry below, report its cytotoxicity at 10 µM value.
# measurement description: Toxicity liver stage against HepG2, at 10uM
# Assay type: cell-based
# Design: test concentration 10 uM, cell line HepG2-A16-CD81EGFP
# measurement context: human, HepG2-A16-CD81EGFP cells; read-out: INHIBITION
Give bare numbers, in %.

Examples with answers:
Cc1noc(C)c1CN(C)C(=O)C1CCN(S(N)(=O)=O)CC1 :: 7.47
Cc1cccc(CN2CCN(C(=O)c3cccnc3O)CC2)c1 :: 1.73
Cc1cc(Cn2cc(C#N)c(=O)c3ccccc32)on1 :: 8.83
Cn1cc([C@@H]2CN(S(=O)(=O)c3ccccc3F)C[C@H]2N)c2ccncc21 :: 6.13
CCCn1cnnc1CNC(=O)C1COc2cc(OC)ccc2C1 (stereo not given) :: 3.21

For the 3 compounds below, give their cytotoxicity at 10 µM values.
1. CC(=O)N1CCC(c2nccnc2C)CC1
2. CNC(=O)CN(C)C(=O)c1cc(Cl)c(Cl)n1C
3. Cc1csc(CNC(=O)NC2CCN(c3ncccn3)CC2)n1

[-2.82, 4.4, -10.6]

For the 2 compounds below, give their cytotoxicity at 10 µM values.
1. CCOc1ccc(-c2ccnc(CC)n2)cc1C(=O)O
2. Cc1ncc(-c2ccnc(N3CCCCCC3)n2)c(-c2cccnc2)n1

[-11.1, 6.21]
